Values compiled from patent US20170340735A1.

- assaySystem: T1, recombinant monomeric cynomolgus monkey TIGIT-His (cynomolgus monkey)
- T1 construct: also called Cyno TIGIT His; cTIGIT; not shown: His tag
- T1 sequence (chain, as listed by the source limits assumed): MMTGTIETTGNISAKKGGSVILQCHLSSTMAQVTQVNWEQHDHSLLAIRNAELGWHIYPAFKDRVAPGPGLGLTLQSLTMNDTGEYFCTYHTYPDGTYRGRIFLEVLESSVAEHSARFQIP
- measurementDescription: BLI (ForteBio), IgG on AHQ sensor, 100 nM monomeric antigen, 1:1 model
pKd: −log10 of the molar value.
Examples of binders with documented pKd follow.

binder | pKd
MAB4-IgG4 (antibody, V domains shown) VH: QLQLQESGPGLVKPSETLSLTCTVSGGSISSTSHYWGWIRQPPGKGLEWIGSIYYSGSTFYNPSLKSRVTISVDTSKNQFSLKLSSVTAADTAVYYCARDANYYGGAWAFDPWGQGTLVTVSS VL: EIVLTQSPATLSLSPGERATLSCRASQSVSSYLAWYQQKPGQAPRLLIYDASNRATGIPARFSGSGSGTDFTLTISSLEPEDFAVYYCQQHFNLPTFGGGTKVEIKR | 9.43
MAB3-IgG4 (antibody, V domains shown) VH: QLQLQESGPGLVKPSETLSLTCTVSGGSISSTSHYWGWIRQPPGKGLEWIGSIYYSGSTFYNPSLKSRVTISVDTSKNQFSLKLSSVTAADTAVYYCARDANYYGSAWAFDPWGQGTLVTVSS VL: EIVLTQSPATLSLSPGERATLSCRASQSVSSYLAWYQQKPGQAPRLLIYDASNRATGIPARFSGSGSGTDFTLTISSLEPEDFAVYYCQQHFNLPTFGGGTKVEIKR | 9.10
MAB17-IgG4 (antibody, V domains shown) VH: QVQLVQSGAEVKKPGASVKVSCKASGYTFPAYYIHWVRQAPGQGLEWMGIINPSLGLTSYARKFQGRVTMTRDTSTSTVYMELSSLRSEDTAVYYCARGGRTTWIGALDIWGQGTMVTVSS VL: EIVMTQSPATLSVSPGERATLSCRASQSVSSNLAWYQQKPGQAPRLLIYGASTRATGIPARFSGSGSGTEFTLTISSLQSEDFAVYYCQQYVVWPPLTFGGGTKVEIKR | 6.96
MAB5-IgG4 (antibody, V domains shown) VH: QLQLQESGPGLVKPSETLSLTCTVSGGSISSTSHYWGWIRQPPGKGLEWIGSIYYSGSTFYNPSLKGRVTISVDTSKNQFSLKLSSVTAADTAVYYCARDANYYGSAWAFDPWGQGTLVTVSS VL: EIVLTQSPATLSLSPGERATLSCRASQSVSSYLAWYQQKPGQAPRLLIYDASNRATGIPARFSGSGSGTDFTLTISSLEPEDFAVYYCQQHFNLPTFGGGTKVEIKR | 9.05
MAB16-IgG4 (antibody, V domains shown) VH: QVQLVQSGAEVKKPGASVKVSCKASGYTFREYYMHWVRQAPGQGLEWMGIINPSIGLTSYARKFQGRVTMTRDTSTSTVYMELSSLRSEDTAVYYCARGGRTTWIGALDIWGQGTMVTVSS VL: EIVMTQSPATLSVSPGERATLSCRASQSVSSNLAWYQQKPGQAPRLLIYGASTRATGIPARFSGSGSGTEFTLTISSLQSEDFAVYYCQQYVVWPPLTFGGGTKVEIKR | 7.15
MAB1-IgG4 (antibody, V domains shown) VH: QLQLQESGPGLVKPSETLSLTCTVSGGSITSSSYYWGWIRQPPGKGLEWIGSIYYSGATFYNPSLKSRVTISVDTSKNQFSLKLSSVTAADTAVYYCARDANYYGSAWAFDPWGQGTLVTVSS VL: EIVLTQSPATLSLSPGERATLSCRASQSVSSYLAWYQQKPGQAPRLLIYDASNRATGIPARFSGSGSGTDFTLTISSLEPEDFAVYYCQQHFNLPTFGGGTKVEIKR | 8.58
